The values you see were collected from paper PMC7580763.

Provide the reported Ki of each item.
TARGET_UNDER_TEST: UniProt Q16790
EXPERIMENT_NOTES: CA inhibition, stopped-flow CO2 hydrase assay, hCA IX
Type: biochemical
EXPERIMENTAL_PARAMETERS: Table 1, saccharin-based derivatives; recombinant enzyme, 15 min preincubation, pH 7.5

Sample O=C1c2ccccc2S(=O)(=O)N1Cc1cn(-c2ccc(Cl)cc2)nn1 — what was its Ki?
759 µM

What do you get for COc1ccc(N2C(=O)c3ccccc3S2(=O)=O)cc1 ?
> 1000 µM

What do you get for O=C1c2ccccc2S(=O)(=O)N1c1ccc(C(F)(F)F)cc1 ?
> 1000 µM

* * *

TARGET_UNDER_TEST: hCA II (Homo sapiens)
EXPERIMENT_NOTES: CA inhibition, stopped-flow CO2 hydrase assay, hCA II
Format: biochemical
EXPERIMENTAL_PARAMETERS: Table 1, saccharin-based derivatives; recombinant enzyme, 15 min preincubation, pH 7.5
Provide the reported Ki of each item.

Sample O=C1c2ccccc2S(=O)(=O)N1c1ccc(C(F)(F)F)cc1 — what was its Ki?
> 1000 µM

What do you get for O=C1c2ccccc2S(=O)(=O)N1Cc1cccc(Cl)c1 ?
> 1000 µM

What do you get for O=C1c2ccccc2S(=O)(=O)N1Cc1cn(Cc2ccccc2)nn1 ?
> 100 µM

What do you get for O=C(O)c1ccccc1S(=O)(=O)Nc1ccc(C(F)(F)F)cc1 ?
> 1000 µM

What do you get for O=C1c2ccccc2S(=O)(=O)N1Cc1cn(-c2ccc(Cl)cc2)nn1 ?
80.8 µM

What do you get for COC(=O)c1ccccc1S(=O)(=O)Nc1ccc(F)cc1 ?
> 1000 µM

What do you get for COC(=O)c1ccccc1S(=O)(=O)Nc1ccc(C)cc1 ?
> 1000 µM

What do you get for O=C(O)c1ccccc1S(=O)(=O)NCc1cn(-c2ccccc2)nn1 ?
> 1000 µM

* * *

TARGET_UNDER_TEST: UniProtKB O43570
Sequence (O43570 25-354): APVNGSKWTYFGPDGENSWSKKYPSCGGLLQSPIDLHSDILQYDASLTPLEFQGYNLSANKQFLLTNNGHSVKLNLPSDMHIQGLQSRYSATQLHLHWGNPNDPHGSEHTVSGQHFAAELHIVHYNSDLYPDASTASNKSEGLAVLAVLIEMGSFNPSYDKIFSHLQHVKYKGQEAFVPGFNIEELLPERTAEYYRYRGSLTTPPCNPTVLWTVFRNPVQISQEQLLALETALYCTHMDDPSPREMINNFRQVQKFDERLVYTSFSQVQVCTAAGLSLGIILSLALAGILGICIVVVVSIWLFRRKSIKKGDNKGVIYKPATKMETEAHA
EXPERIMENT_NOTES: CA inhibition, stopped-flow CO2 hydrase assay, hCA XII
Type: biochemical
Provide the reported pKi of each item.
Scale: negative log10 of molar concentration, which is what pKi denotes.

Sample O=C(CN1C(=O)c2ccccc2S1(=O)=O)c1cccc([N+](=O)[O-])c1 — what was its pKi?
6.39

What do you get for CC(C)=CCN1C(=O)c2ccccc2S1(=O)=O ?
6.64

What do you get for O=C1c2ccccc2S(=O)(=O)N1Cc1ccccc1Cl ?
6.66

* * *

TARGET_UNDER_TEST: hCA IX (Homo sapiens)
EXPERIMENT_NOTES: CA inhibition, stopped-flow CO2 hydrase assay, hCA IX
Assay type: biochemical
EXPERIMENTAL_PARAMETERS: Table 1, saccharin-based derivatives; recombinant enzyme, 15 min preincubation, pH 7.5
Provide the reported pKi of each item.
Scale: negative log10 of molar concentration, which is what pKi denotes.

Sample COC(=O)c1ccccc1S(=O)(=O)Nc1ccc(Cl)cc1 [Compound 8] — what was its pKi?
3.02

What do you get for COC(=O)c1ccccc1S(=O)(=O)Nc1c(C)cccc1C [Compound 14] ?
4.40

What do you get for COC(=O)c1ccccc1S(=O)(=O)Nc1ccccc1 [Compound 5] ?
4.22

What do you get for O=C1c2ccccc2S(=O)(=O)N1Cc1cn(Cc2ccccc2)nn1 [Compound 46] ?
4.68

What do you get for O=C(O)c1ccccc1S(=O)(=O)NCc1cn(-c2ccccc2)nn1 [Compound 47] ?
3.03

What do you get for O=C(O)c1ccccc1S(=O)(=O)Nc1ccc(Br)cc1 [Compound 21] ?
4.14

What do you get for COc1ccc(-n2cc(CN3C(=O)c4ccccc4S3(=O)=O)nn2)cc1 [Compound 45] ?
3.18

What do you get for COC(=O)c1ccccc1S(=O)(=O)Nc1ccc(C)cc1 [Compound 13] ?
4.17

What do you get for O=C1c2ccccc2S(=O)(=O)N1Cc1cn(-c2ccc(Br)cc2)nn1 [Compound 43] ?
3.27

What do you get for O=C1c2ccccc2S(=O)(=O)N1c1ccccc1Cl [Compound 31] ?
3.19

What do you get for COC(=O)c1ccccc1S(=O)(=O)Nc1ccc(C(C)C)cc1 [Compound 15] ?
4.24

What do you get for O=C1c2ccccc2S(=O)(=O)N1c1ccc(Br)cc1 [Compound 33] ?
3.06

What do you get for COC(=O)c1ccccc1S(=O)(=O)Nc1ccc([N+](=O)[O-])cc1 [Compound 12] ?
4.20

What do you get for O=C(O)c1ccccc1S(=O)(=O)Nc1ccccc1 [Compound 17] ?
4.33

What do you get for O=C1c2ccccc2S(=O)(=O)N1c1ccc([N+](=O)[O-])cc1 [Compound 36] ?
3.35

* * *

TARGET_UNDER_TEST: hCA IX (Homo sapiens)
EXPERIMENT_NOTES: CA inhibition, stopped-flow CO2 hydrase assay, hCA IX
Assay type: biochemical
EXPERIMENTAL_PARAMETERS: Table 1, saccharin-based derivatives; recombinant enzyme, 15 min preincubation, pH 7.5
Provide the reported Ki of each item.

Sample Cc1ccc(-n2cc(CNS(=O)(=O)c3ccccc3C(=O)O)nn2)cc1 [Compound 48] — what was its Ki?
> 1000 µM

What do you get for Cc1cccc(C)c1N1C(=O)c2ccccc2S1(=O)=O [Compound 38] ?
> 1000 µM

What do you get for O=C1c2ccccc2S(=O)(=O)N1c1ccccc1 [Compound 29] ?
> 1000 µM

What do you get for O=C(CN1C(=O)c2ccccc2S1(=O)=O)c1cccc([N+](=O)[O-])c1 [Compound 4] ?
> 1000 µM

What do you get for O=C1c2ccccc2S(=O)(=O)N1c1cccc([N+](=O)[O-])c1 [Compound 35] ?
> 1000 µM

What do you get for COC(=O)c1ccccc1S(=O)(=O)Nc1cccc([N+](=O)[O-])c1 [Compound 11] ?
> 1000 µM

What do you get for Cc1ccc(NS(=O)(=O)c2ccccc2C(=O)O)cc1 [Compound 25] ?
> 1000 µM

What do you get for O=C1c2ccccc2S(=O)(=O)N1Cc1cn(-c2ccccc2)nn1 [Compound 41] ?
> 1000 µM

What do you get for O=C(O)c1ccccc1S(=O)(=O)Nc1cccc([N+](=O)[O-])c1 [Compound 23] ?
> 1000 µM

What do you get for O=C(O)c1ccccc1S(=O)(=O)Nc1ccccc1Cl [Compound 19] ?
> 1000 µM

What do you get for O=C(O)c1ccccc1S(=O)(=O)Nc1ccc(Cl)cc1 [Compound 20] ?
> 1000 µM

What do you get for CC(C)c1ccc(NS(=O)(=O)c2ccccc2C(=O)O)cc1 [Compound 27] ?
> 1000 µM

What do you get for COc1ccc(NS(=O)(=O)c2ccccc2C(=O)O)cc1 [Compound 28] ?
> 1000 µM

What do you get for O=C1c2ccccc2S(=O)(=O)N1c1ccc(Cl)cc1 [Compound 32] ?
> 1000 µM

What do you get for CC(C)c1ccc(N2C(=O)c3ccccc3S2(=O)=O)cc1 [Compound 39] ?
> 1000 µM

What do you get for Cc1ccc(N2C(=O)c3ccccc3S2(=O)=O)cc1 [Compound 37] ?
> 1000 µM

What do you get for Cc1cccc(C)c1NS(=O)(=O)c1ccccc1C(=O)O [Compound 26] ?
> 1000 µM
